Record form. Attribute: pIC50. Fill in for each entry.
- ASSAYED_TARGET: human Tissue Factor Pathway Inhibitor-1α (TFPI-1α) (human), P10646
- Sequence (P10646 29-304): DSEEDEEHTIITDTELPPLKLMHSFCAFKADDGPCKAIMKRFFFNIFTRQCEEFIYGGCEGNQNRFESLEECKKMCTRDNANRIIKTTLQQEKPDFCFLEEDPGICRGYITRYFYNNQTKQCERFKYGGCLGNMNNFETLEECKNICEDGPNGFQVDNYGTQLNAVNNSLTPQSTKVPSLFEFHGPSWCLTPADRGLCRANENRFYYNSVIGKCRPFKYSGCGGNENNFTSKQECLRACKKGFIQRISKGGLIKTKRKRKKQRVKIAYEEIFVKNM
- PROCEDURE_SUMMARY: competition
- REPORTED_CONDITIONS: modification not given
pIC50: −log10 of the molar value.

INSERT INTO measurements (binder, reading) VALUES
  ('FQSKGNVFVFAYFERLRAKL [JBT0525]', '< 5.30'),
  ('FQSKGNVFVTGYFARLRAKL [JBT0720]', 7.57),
  ('FQSKKNVFVFGYFERLFAKL [JBT0581]', '< 5.30');

// batch mode: one pIC50 value per listed entry
1. LKARLREFYGFVFVNKKSQF [JBT0783]
2. FQSKKNVDVFGYFERLRAKL [JBT0591]
3. FQSKGDVFVFGYFERLRAKL [JBT0520]
4. FQSKGNVFVAGYFARLRAKL [JBT0806]
5. FLSKKNVFVFGYFERLRAKL [JBT0602]

Solution:
1: < 5.78; 2: < 5.30; 3: 6.73; 4: 7.38; 5: < 5.30
